B1: ZBTB22 (parent)
chain: RPFDCPVCNKKFKMKHHLTEHMKT

Variants of: B1
ASSAY OVERVIEW: protein stability index of a GFP-peptide fusion (GPS, HEK-293T) (PSI 1-6); higher = more stable;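 further: lentivirally expressed fusions sorted by FACS into six bins by GFP to DsRed ratio, PSI derived from sequencing read proportions per bin multiplied by bin number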
EXPERIMENTAL CONTEXT: c terminus: a fixed tail appended
// values below are reported protein stability index
READOUT NAME: protein stability index

RPFDCPVCNKKFKMKHHLTEHWKT [M22W]	2.43
RPFDCPVCNKKFKMTHHLTEHMKT [K15T]	1.87
RPFDCPVCNKKFKMKHHLTEHMKS [T24S]	2.53
RPFDCPVCNKKFKMKNHLTEHMKT [H16N]	2.71
RPFDCHVCNKKFKMKHHLTEHMKT [P6H]	2.27
RPFSCPVCNKKFKMKHHLTEHMKT [D4S]	3.5
RPFDCPVCNKKFKMKHHLTCHMKT [E20C]	2.83
RPFDCPVCNKKFKMKHHLTTHMKT [E20T]	2.31
RPFDMPVCNKKFKMKHHLTEHMKT [C5M]	2.9
RPFVCPVCNKKFKMKHHLTEHMKT [D4V]	3.54
RPFDCPVCNKGFKMKHHLTEHMKT [K11G]	2.43
RPFDCPGCNKKFKMKHHLTEHMKT [V7G]	3.06
RRFDCPVCNKKFKMKHHLTEHMKT [P2R]	2.12
RPFDCPVCNKKFKMKHHLTEHMNT [K23N]	3.29
RPFDCPVCNKKFKMKHHLTEHMQT [K23Q]	3.34
RPFDCPVCNKKFKMKHHLTEHIKT [M22I]	2.15
RPFDCPVCNKSFKMKHHLTEHMKT [K11S]	3.12
RPFDCPVCDKKFKMKHHLTEHMKT [N9D]	3.13
RPFDCPVCNKKFVMKHHLTEHMKT [K13V]	2.9
RPFDCPVCFKKFKMKHHLTEHMKT [N9F]	2.27
RPFACPVCNKKFKMKHHLTEHMKT [D4A]	3.31
RPCDCPVCNKKFKMKHHLTEHMKT [F3C]	2.98
RPFDCPVCNKKFKMKFHLTEHMKT [H16F]	1.9
RPFDCPVCNKKFKMLHHLTEHMKT [K15L]	2.65
RPFDCPVCGKKFKMKHHLTEHMKT [N9G]	3.59
RPFDCPVCNAKFKMKHHLTEHMKT [K10A]	2.52
RPFDCPVCNWKFKMKHHLTEHMKT [K10W]	1.7
WPFDCPVCNKKFKMKHHLTEHMKT [R1W]	2.09
RPFDCPVCNRKFKMKHHLTEHMKT [K10R]	2.37
RPFDCPVCNKKDKMKHHLTEHMKT [F12D]	2.22
RPFDCPVCNKKFKMKHHGTEHMKT [L18G]	3.36
RPFDCPVCNKKFKMWHHLTEHMKT [K15W]	2.47
RPFDCPVCNKKFKMMHHLTEHMKT [K15M]	2.24
RPFDCPVCNMKFKMKHHLTEHMKT [K10M]	2.46
RPFDCPVCNKKFKMKHKLTEHMKT [H17K]	3.1
RPFDCPVCNKKFKMKHYLTEHMKT [H17Y]	1.95
RPFDCPVCNKKFPMKHHLTEHMKT [K13P]	2.74
RPFDCPVCNKKFKCKHHLTEHMKT [M14C]	3.9
RPFDCPVCNKKFKNKHHLTEHMKT [M14N]	3.89
RPFICPVCNKKFKMKHHLTEHMKT [D4I]	3.62
RPFDCPVCNKKFKMKHHLTQHMKT [E20Q]	2.8
RPFDFPVCNKKFKMKHHLTEHMKT [C5F]	2.66
RPVDCPVCNKKFKMKHHLTEHMKT [F3V]	2.85
RPLDCPVCNKKFKMKHHLTEHMKT [F3L]	2.35
RTFDCPVCNKKFKMKHHLTEHMKT [P2T]	3.84
RQFDCPVCNKKFKMKHHLTEHMKT [P2Q]	2.76
RPFDCPVCNKKFKEKHHLTEHMKT [M14E]	3.72
RPFDCPVCNKKFKMKLHLTEHMKT [H16L]	2.56
RPFDCPVCNKKFKMNHHLTEHMKT [K15N]	2.12
RPFDCPVCNKKFKMKHHLTEHMYT [K23Y]	2.17
RPFDCPVCNKKFKMKHHLTEHMKE [T24E]	3.21
RPFDCPVCNKKFKMKHHLTEDMKT [H21D]	2.37
QPFDCPVCNKKFKMKHHLTEHMKT [R1Q]	2.8
RPFDCPVCNKKFKMKHHLREHMKT [T19R]	3.34
RPFDCPVCNKKFKMKHWLTEHMKT [H17W]	2.08
RPFDCPVCNKKFKMKHHLTWHMKT [E20W]	2.08
RPFDCPVCNKKGKMKHHLTEHMKT [F12G]	2.65
RPFDCPVCNKKFKMKHHLTEHTKT [M22T]	2.38
RPFDCPVCNKPFKMKHHLTEHMKT [K11P]	2.34
RPEDCPVCNKKFKMKHHLTEHMKT [F3E]	2.6
RPFDCPECNKKFKMKHHLTEHMKT [V7E]	3.58
RPFDCPVCNKKFKMKYHLTEHMKT [H16Y]	2.28
RPFDCPVCNKKFKMKHHLTEHMKM [T24M]	2.5
RPFDCPVCNKKFKMKHHLTEHRKT [M22R]	2.48
RPFDCPVDNKKFKMKHHLTEHMKT [C8D]	3.25
RPFDCPFCNKKFKMKHHLTEHMKT [V7F]	3.21
RPFDCPVLNKKFKMKHHLTEHMKT [C8L]	2.92
RPFDCPVCNKKFKMKHHLTEHVKT [M22V]	1.89
RPFDCIVCNKKFKMKHHLTEHMKT [P6I]	2.03
RPFDCPVCNKFFKMKHHLTEHMKT [K11F]	1.8
RPFDCPVCNKKFKMKHSLTEHMKT [H17S]	2.42
RPFDCPVCNKKFKMKWHLTEHMKT [H16W]	2.27
RPFHCPVCNKKFKMKHHLTEHMKT [D4H]	2.87
RPFDCPVCNKKFKMKHHLTEHQKT [M22Q]	2.71
RPFDEPVCNKKFKMKHHLTEHMKT [C5E]	3.76
RPFDCPVCNKKFKMKPHLTEHMKT [H16P]	2.25
RPNDCPVCNKKFKMKHHLTEHMKT [F3N]	3.06
RPFDCPWCNKKFKMKHHLTEHMKT [V7W]	2.85
RPFDCPVCNKKFKMKHHLTPHMKT [E20P]	2.11
RPFDCPVCNKKFKMKHHLTEHMKI [T24I]	1.95
VPFDCPVCNKKFKMKHHLTEHMKT [R1V]	2.74
RPFLCPVCNKKFKMKHHLTEHMKT [D4L]	2.92
RWFDCPVCNKKFKMKHHLTEHMKT [P2W]	2.52
RPFDCPVCNKQFKMKHHLTEHMKT [K11Q]	2.31
RPRDCPVCNKKFKMKHHLTEHMKT [F3R]	1.98
